Tested on: T47D human breast cancer cells
Experiment: T47D Human Breast Cancer Cells Assay (alkaline phosphatase, luminescence)
Assay type: cell-based
Conditions: Homo sapiens, T47D, 24 h, read-out: T47D IC50 (nM), T47D cells, 24 h with test compound, alkaline phosphatase assay (SEAP kit)
What IC50 was measured for each of the following?
Respond numerically; units are nM and should not be typed.

Query block: Look up and state reported IC50 for CN(C)c1ccc([C@H]2OC[C@@]3(C)C(CC[C@@]3(O)C#Cc3ccccc3)C3CCC4=CC(=O)CCC4=C32)cc1 (stereo partly shown)
Result block: 78

Query block: Look up and state reported IC50 for CSc1ccc([C@H]2OC[C@@]3(C)C(CC[C@@]3(O)C(F)(F)C(F)(F)F)C3CCC4=CC(=O)CCC4=C32)cc1 (stereo partly shown)
Result block: 54

Query block: Look up and state reported IC50 for CN(C)c1ccc([C@H]2OC[C@]3(C)C(=O)CCC3C3CCC4=CC(=O)CCC4=C32)cc1 (stereo partly shown)
Result block: 1800

Query block: Look up and state reported IC50 for C=C(C)[C@]1(O)CCC2C3CCC4=CC(=O)CCC4=C3[C@@H](c3ccc(N(C)C)cc3)OC[C@@]21C (stereo partly shown)
Result block: 0.4

----------
What IC50 was measured for each of the following?
Test system: T47D human breast cancer cells
Assay: T47D Human Breast Cancer Cells Assay (alkaline phosphatase, luminescence)
Assay type: cell-based
Details: Homo sapiens, T47D, 24 h, read-out: T47D IC50 (nM), T47D cells, 24 h with test compound, alkaline phosphatase assay (SEAP kit)
Respond numerically; units are nM and should not be typed.

Query block: Look up and state reported IC50 for C=C(C)[C@]1(O)CCC2C3CCC4=CC(=O)CCC4=C3[C@@H](c3ccc(SC)cc3)OC[C@@]21C (stereo partly shown)
Result block: 5.12

Query block: Look up and state reported IC50 for CN(C)c1ccc([C@H]2OC[C@@]3(C)C(CC[C@@]3(O)C#Cc3cc(F)cc(F)c3)C3CCC4=CC(=O)CCC4=C32)cc1 (stereo partly shown)
Result block: 160

Query block: Look up and state reported IC50 for CN(C)c1ccc([C@H]2OC[C@@]3(C)C(CC[C@@]3(O)C#Cc3ccccc3F)C3CCC4=CC(=O)CCC4=C32)cc1 (stereo partly shown)
Result block: 48

----------
Tested on: A549 Human lung carcinoma cells
Test: A549 Human Lung Cell Assay (transfected cells, dexamethasone challenge, luciferase read-out)
Type: cell-based
Details: Homo sapiens, A549, A549 cells, test compound 10 min then dexamethasone challenge, 24 h, Luc-assay; read-out: A 549 IC50
Experimental: A549Human Lung Cell Assay A549Human lung carcinoma cells were grown in F-12K Nutrient Mixture containing 10% (v/v) fetal bovine serum (FBS; Invitrogen), 2 mM glutamine and 0.15% sodium dicarbonate (Invitrogen). A549 cells were split 1 to 3 in 175 cm tissue culture flask. […] To each well was then added 5 μl of test compounds and the cells incubated at 37° C. for 10 min. […] A 150 μL sample from each well was then transferred into a DYNEX Microlitel plate and read on Top-counter. […]
What IC50 was measured for each of the following?

Query block: Look up and state reported IC50 for CC#C[C@]1(O)CCC2C3CCC4=CC(=O)CCC4=C3[C@@H](c3ccc(N(C)C)cc3)OC[C@@]21C (some centres unmarked) [Compound 7]
Result block: 16.2 nM

Query block: Look up and state reported IC50 for C#C[C@]1(O)CCC2C3CCC4=CC(=O)CCC4=C3[C@@H](c3ccc(OC)cc3)OC[C@@]21C (some centres unmarked) [Compound 12]
Result block: 118 nM

Query block: Look up and state reported IC50 for CC#C[C@]1(O)CCC2C3CCC4=CC(=O)CCC4=C3[C@H](c3ccc(OC)cc3)OC[C@@]21C (some centres unmarked) [Compound 15]
Result block: 583 nM

Query block: Look up and state reported IC50 for CSc1ccc([C@H]2OC[C@]3(C)C(=O)CCC3C3CCC4=CC(=O)CCC4=C32)cc1 (some centres unmarked) [Compound 25]
Result block: 1320 nM

Query block: Look up and state reported IC50 for CN(C)c1ccc([C@H]2OC[C@]3(C)C(=O)CCC3C3CCC4=CC(=O)CCC4=C32)cc1 (some centres unmarked) [Compound 10]
Result block: > 3000 nM

Query block: Look up and state reported IC50 for COc1ccc([C@H]2OC[C@]3(C)C(=O)CCC3C3CCC4=CC(=O)CCC4=C32)cc1 (some centres unmarked) [Compound 28]
Result block: > 3000 nM

Query block: Look up and state reported IC50 for CC#C[C@]1(O)CCC2C3CCC4=CC(=O)CCC4=C3[C@@H](c3ccc(OC)cc3)OC[C@@]21C (some centres unmarked) [Compound 14]
Result block: 46 nM

Query block: Look up and state reported IC50 for COc1ccc([C@H]2OC[C@@]3(C)C(CC[C@@]3(O)C#Cc3ccc(C(C)(C)C)cc3)C3CCC4=CC(=O)CCC4=C32)cc1 (some centres unmarked) [Compound 9]
Result block: 626 nM

Query block: Look up and state reported IC50 for COc1ccc([C@@H]2OC[C@@]3(C)C(CC[C@@]3(O)C#Cc3ccc(C(F)(F)F)cc3)C3CCC4=CC(=O)CCC4=C32)cc1 (some centres unmarked) [Compound 22]
Result block: > 3000 nM

Query block: Look up and state reported IC50 for C=C(C)[C@]1(O)CCC2C3CCC4=CC(=O)CCC4=C3[C@@H](c3ccc(SC)cc3)OC[C@@]21C (some centres unmarked) [Compound 2]
Result block: 58.2 nM

Query block: Look up and state reported IC50 for CSc1ccc([C@H]2OC[C@]3(C)C(C#Cc4ccccc4)=CCC3C3CCC4=CC(=O)CCC4=C32)cc1 (some centres unmarked) [Compound 11]
Result block: > 3000 nM

Query block: Look up and state reported IC50 for CSc1ccc([C@H]2OC[C@@]3(C)C(CC[C@@]3(O)C(F)(F)C(F)(F)F)C3CCC4=CC(=O)CCC4=C32)cc1 (some centres unmarked) [Compound 5]
Result block: 7.06 nM

Query block: Look up and state reported IC50 for C=CC(=O)[C@]1(O)CCC2C3CCC4=CC(=O)CCC4=C3[C@@H](c3ccc(SC)cc3)OC[C@@]21C (some centres unmarked) [Compound 26]
Result block: 2310 nM

Query block: Look up and state reported IC50 for COc1ccc([C@@H]2OC[C@@]3(C)C(CC[C@@]3(O)C#CC(F)(F)F)C3CCC4=CC(=O)CCC4=C32)cc1 (some centres unmarked) [Compound 20]
Result block: > 3000 nM

Attribution: patent US7390831B2
